Consider the following compounds; for each one, report its %Inh.
system: HIPK3; conditions: concentration: 1 μM,replicates: in singlicate; n = 1;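 further: KINOMEscan kinase panel screen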
Write the value in % as a bare number.

Req: Endpoint output: %Inh of "O=C(Nc1ccccc1)c1cccc(Oc2ccc3nccn3n2)c1" . Value?
Resp: 0

Req: Endpoint output: %Inh of Cc1ccc(Nc2ccnc(Nc3ccc4c(c3)CS(=O)(=O)C4)n2)cc1O.Cl [GW579362] . Value?
Resp: 28

Req: Endpoint output: %Inh of "Cc1ccc(C(=O)Nc2ccc(Oc3ccc4nc(NC(=O)C5CC5)cn4c3)c(F)c2)c(=O)n1-c1ccccc1" . Value?
Resp: 0

Req: Endpoint output: %Inh of CCNCC(Cc1ccccc1)NC(=O)c1cc(Br)c(-c2ccnc3[nH]ccc23)s1.Cl.Cl (centres unmarked) [GSK1383280] . Value?
Resp: 48

Req: Endpoint output: %Inh of CCOC(=O)N1CCC(n2cnc(-c3ccc(F)cc3)c2-c2ccnc(N)n2)CC1 [SB-219952] . Value?
Resp: 15

Req: Endpoint output: %Inh of CN1CCN(CCCNc2nccc(-c3c(-c4ccc(F)cc4)nn4cc(C(N)=O)ccc34)n2)CC1 [GW622475] . Value?
Resp: 27

Req: Endpoint output: %Inh of "Cn1ccc2ncnc(Oc3ccc(NC(=O)Nc4ccnc(C(F)(F)F)c4)c(Cl)c3)c21" . Value?
Resp: 0

Req: Endpoint output: %Inh of "Cn1ccc2ncnc(Oc3ccc(NC(=O)Nc4cccc(C(F)(F)F)c4)c(Cl)c3)c21" . Value?
Resp: 0

----------
Consider the following molecules; for each one, report its %Inh.
tested on: NEK11; conditions: concentration: 1 μM,replicates: in singlicate; n = 1
Write the value in % as a bare number.

Req: Endpoint output: %Inh of "C[C@@H](Oc1cc(-n2cnc3cc(-c4cnn(C)c4)ccc32)sc1C(N)=O)c1ccccc1Cl" . Value?
Resp: 0

Req: Endpoint output: %Inh of "COc1cccc(C2=C(Nc3cccc(Cl)c3)C(=O)NC2=O)c1" . Value?
Resp: 0

Req: Endpoint output: %Inh of "Cn1cc(-c2cccc3c(N)c(C(N)=O)nnc23)cn1" . Value?
Resp: 0

Req: Endpoint output: %Inh of "CNC(=O)c1ccccc1Nc1nc(Nc2cccc(CS(C)(=O)=O)c2)ncc1C.O=CO" . Value?
Resp: 66

Req: Endpoint output: %Inh of "CCn1c(-c2nonc2N)nc2cncc(Br)c21" . Value?
Resp: 40

Req: Endpoint output: %Inh of "CSc1nccc(-c2c(-c3ccc(F)cc3)ncn2CCCN2CCOCC2)n1.Cl" . Value?
Resp: 0

Req: Endpoint output: %Inh of Cc1nnc(-c2ccc3occ(-c4ccc(S(C)=O)cc4)c3n2)o1 (stereo not drawn) . Value?
Resp: 0

Req: Endpoint output: %Inh of "COc1cc2ncn(-c3cc(OCC4CCCCC4)c(C(N)=O)s3)c2cc1OC" . Value?
Resp: 0

Req: Endpoint output: %Inh of "COc1cc2c(Nc3ccc(NC(=O)c4ccccc4)cc3)ncnc2cc1OCCCN1CCOCC1" . Value?
Resp: 0

----------
tested on: AAK1; conditions: concentration: 1 μM,replicates: in singlicate; n = 1
metric: %Inh (%)
Write the value in % as a bare number.

Req: Endpoint output: %Inh of Cc1nnc(-c2ccc3occ(-c4ccc(S(C)=O)cc4)c3n2)o1 (stereo not drawn) . Value?
Resp: 0

Req: Endpoint output: %Inh of "O=C1NCCc2[nH]c(-c3ccncc3)cc21" . Value?
Resp: 77

Req: Endpoint output: %Inh of Cl.Nc1n[nH]c2cc(-c3ccccn3)ccc12 [GSK2189892] . Value?
Resp: 17

Req: Endpoint output: %Inh of CC(=O)c1c(-c2ccncc2)[nH]c(-c2ccncc2)c1C [GW493036] . Value?
Resp: 14

Req: Endpoint output: %Inh of C[C@@H](Oc1cc(-n2cnc3cc(-c4ccncc4)ccc32)sc1C(N)=O)c1ccccc1Cl [GSK479719] . Value?
Resp: 61

Req: Endpoint output: %Inh of "Cn1ccc2ncnc(Oc3ccc(NC(=O)Nc4cnn(C(C)(C)C)c4)c(Cl)c3)c21" . Value?
Resp: 3

Req: Endpoint output: %Inh of "Cn1cc(-c2cccc3c(N)c(C(N)=O)nnc23)cn1" . Value?
Resp: 36

Req: Endpoint output: %Inh of CC(C)S(=O)(=O)N1CCN(Cc2ccc3c(c2)nc(NC(=O)c2ccsc2)n3C[C@H](O)c2ccccc2)CC1 [GW635815] . Value?
Resp: 38

Req: Endpoint output: %Inh of "Cn1ccc2ncnc(Oc3ccc(NC(=O)Nc4ccnc(C(F)(F)F)c4)c(Cl)c3)c21" . Value?
Resp: 18

From: paper PMC5540273
